- assay-system: B-Raf (V600E)-kinase (Homo sapiens (Human), UniProt P15056, V600E)
- Sequence (P15056 whole entry V600E): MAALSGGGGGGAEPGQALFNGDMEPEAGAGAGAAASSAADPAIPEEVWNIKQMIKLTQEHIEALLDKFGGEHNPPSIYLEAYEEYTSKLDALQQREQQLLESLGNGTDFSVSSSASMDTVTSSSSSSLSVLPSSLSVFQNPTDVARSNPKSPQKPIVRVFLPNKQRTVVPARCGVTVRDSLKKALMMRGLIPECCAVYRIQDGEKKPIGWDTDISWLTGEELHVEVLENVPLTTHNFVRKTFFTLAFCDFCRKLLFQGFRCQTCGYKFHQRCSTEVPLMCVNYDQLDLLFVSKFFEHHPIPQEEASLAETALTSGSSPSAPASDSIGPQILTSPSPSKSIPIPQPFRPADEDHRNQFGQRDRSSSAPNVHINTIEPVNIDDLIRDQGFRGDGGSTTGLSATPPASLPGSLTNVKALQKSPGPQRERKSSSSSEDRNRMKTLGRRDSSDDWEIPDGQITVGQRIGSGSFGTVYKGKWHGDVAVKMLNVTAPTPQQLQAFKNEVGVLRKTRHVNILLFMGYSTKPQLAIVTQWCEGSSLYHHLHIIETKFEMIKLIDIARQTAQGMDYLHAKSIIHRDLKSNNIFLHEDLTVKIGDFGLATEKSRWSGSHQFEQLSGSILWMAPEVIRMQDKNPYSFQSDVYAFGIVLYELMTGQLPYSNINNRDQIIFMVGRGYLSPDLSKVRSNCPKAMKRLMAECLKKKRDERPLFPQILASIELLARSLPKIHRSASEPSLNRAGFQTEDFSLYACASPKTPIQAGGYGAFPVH
- procedure-text: Kinase test B-RAF (V600E)
- Type: biochemical
- measurement-setup: B-RAF (V600E) kinase test, 250 μM ATP
pIC50: −log10 of the molar value.
measured-endpoint: pIC50

Previously resolved entries follow.
- CCC(C)S(=O)(=O)Nc1ccc(C)c(Nc2ncnc3cnc(N4CCN(C)CC4)nc23)c1 (stereo not shown) [IV-56]: 5.00
- Cc1ccc(C(=O)Nc2ccc(C#N)c(C(F)(F)F)c2)cc1Nc1ncnc2cnc(N3CCCCC3)nc12 [III-333]: 7.25
- COCCN(C)c1ncc2ncnc(Nc3cc(C(=O)Nc4cc(C(C)(C)C)on4)ccc3Cl)c2n1 [III-67]: 8.30
- Cc1ccc(NC(=O)c2cccc(C(C)(C)C#N)c2)cc1Nc1ncnc2cnc(N3CCC(F)(F)C3)nc12 [IV-33]: 8.70
- Cc1ccc(NS(=O)(=O)C2CC2)cc1Nc1ncnc2cnc(N3CCN(C)CC3)nc12 [IV-63]: 6.23

P = CN1CCC(N2CCN(c3nc(N)c4ncnc(Nc5cc(C(=O)Nc6cccc(C(F)(F)F)c6)ccc5Br)c4n3)CC2)CC1 [I-28]
Q = COc1ccc(NC(=O)c2ccc(C)c(Nc3ncnc4cnc(N5CCN(C(C)C)CC5)nc34)c2)cc1C(F)(F)F [III-437]
# input Hello, I am sorting some records. Could you say if P or Q has the smaller pIC50 value? Answer with the label corresponding to your selection.
# output P
(P: 7.89, Q: 8.70)

I = COc1ncc2ncnc(Nc3cc(NC(=O)c4ccc(OC)c(C(F)(F)F)c4)ccc3C)c2n1 [IV-42]
II = Cc1ccc(C(=O)Nc2cc(OCCN(C)C)cc(C(F)(F)F)c2)cc1Nc1ncnc2cnc(N3CCC3)nc12 [III-143]
# input Could you kindly indicate whether I or II has the higher pIC50 value? Answer with the label corresponding to your selection.
# output II
(II: 8.70, I: 7.89)

a = Cc1cc(C(=O)Nc2cc(C(C)(C)C)nn2C)cc(Nc2ncnc3cnc(N4CCN(C)CC4)nc23)c1C [III-373]
b = Cc1ccc(NC(=O)c2cccc(C(F)(F)F)c2)cc1Nc1ncnc2c(N)nc(N3CCCN(C4CC4)CC3)nc12 [II-10]
# input Hello, I am sorting some records. Could you say if a or b has the smaller pIC50 value? Answer with the label corresponding to your selection.
# output b

###

- assay-system: B-Raf (V600E)-kinase (Homo sapiens (Human), UniProt P15056, V600E)
- procedure-text: Kinase test B-RAF (V600E)
- Type: biochemical
- measurement-setup: B-RAF (V600E) kinase test, 250 μM ATP
- Procedure: Kinase Test B-RAF (V600E) In a dilution series 10 μL of test substance solution are placed in a multiwell plate. The dilution series is selected so that generally a range of concentrations of 2 μM to 0.119 nM or 0.017 nM is covered. […] After the addition of 200 μL Enhancement Solution (Perkin Elmer, #4001-0010/#1244-105) the mixture is shaken for 10 min at RT and then measured in a Wallac Victor using the program “Delfia Time Resolved Fluorescence (Europium)”. […]
pIC50: −log10 of the molar value.
measured-endpoint: pIC50

Previously resolved entries follow.
- Cc1ccc(C(=O)Nc2cc(C(C)(C)C)on2)cc1Nc1ncnc2cnc(N3CCN(C4CC4)CC3)nc12: 8.30
- COc1ccc(NC(=O)c2ccc(C)c(Nc3ncnc4cnc(N5CCC(N6C[C@@H](C)O[C@@H](C)C6)CC5)nc34)c2)cc1C(F)(F)F: 7.85
- Cc1ccc(C(=O)Nc2cc(C(C)(C)C)on2)cc1Nc1ncnc2cnc(NCC(C)C)nc12: 7.89

1 = COc1c(NC(=O)c2ccc(C)c(Nc3ncnc4cnc(N5CC[C@H](F)C5)nc34)c2)cc(C(C)(C)C)cc1NS(C)(=O)=O
2 = CC(C)(C)c1cc(NC(=O)c2ccc(F)c(Nc3ncnc4cnc(N5CCOCC5)nc34)c2)no1
3 = Cc1ccc(NC(=O)c2cccc(C(F)(F)F)c2)cc1Nc1ncnc2c(N)nc(NCc3ccncc3)nc12
4 = Cc1ccc(C(=O)Nc2cccc(C(C)(C)C#N)c2)cc1Nc1ncnc2cnc(N3CC[C@@H](F)C3)nc12
# input Order by pIC50, ascending. Please reply with the labels ordered as requested. Many thanks.
# output 3, 1, 2, 4
(3: 7.09, 1: 7.77, 2: 8.40, 4: 8.70)

###

- assay-system: B-Raf (V600E)-kinase (Homo sapiens (Human), UniProt P15056, V600E)
- procedure-text: Kinase test B-RAF (V600E)
- Format: biochemical
- measurement-setup: B-RAF (V600E) kinase test, 250 μM ATP
pIC50: −log10 of the molar value.
measured-endpoint: pIC50

A = Cc1ccc(C(=O)Nc2cc(C(C)(C)C)n[nH]2)cc1Nc1ncnc2c(N)nc(N3C[C@@H](C)N[C@@H](C)C3)nc12
B = COCCNc1ncc2ncnc(Nc3cc(C(=O)Nc4cc(OCCN(C)C)cc(C(F)(F)F)c4)ccc3C)c2n1
C = COc1ccc(C(F)(F)F)cc1NC(=O)c1ccc(C)c(Nc2ncnc3cnc(N4CCCN(C)CC4)nc23)c1
# input Ranking field: pIC50; order: falling. Please reply with the labels ordered as requested. Many thanks.
# output B, A, C

a = COc1ccc(C(=O)Nc2ccc(C)c(Nc3ncnc4cnc(N(C)C)nc34)c2)cc1C(F)(F)F
b = COc1ccc(NC(=O)c2ccc(C)c(Nc3ncnc4cnc(NC5CC(N6CCN(C)CC6)C5)nc34)c2)cc1C(F)(F)F (stereo not drawn)
c = COCCN1CCN(c2ncc3ncnc(Nc4cc(C(=O)Nc5cc(C(F)(F)F)ccc5-n5cccn5)ccc4C)c3n2)CC1
d = Cc1ccc(NS(=O)(=O)C2CCCCC2)cc1Nc1ncnc2cnc(N3CCN(C)CC3)nc12
# input Order by pIC50, ascending. Please reply with the labels ordered as requested. Many thanks.
# output d, c, a, b

###

- assay-system: B-Raf (V600E)-kinase (Homo sapiens (Human), UniProt P15056, V600E)
- procedure-text: Kinase test B-RAF (V600E)
- Type: biochemical
- measurement-setup: B-RAF (V600E) kinase test, 250 μM ATP
measured-endpoint: IC50 (nM)

Previously resolved entries follow.
• Cc1ccc(C(=O)Nc2cccc(C(F)(F)F)c2)cc1Nc1ncnc2cnc(N3CCCN(C)CC3)nc12 = 2
• Cc1ccc(C(=O)Nc2cc(C(C)(C)C)n[nH]2)cc1Nc1ncnc2c(N)nc(N3CCN(CC(C)C)CC3)nc12 = 4
• COC[C@@H]1CCCN1c1ncc2ncnc(Nc3cc(C(=O)Nc4ccc(OC)c(C(F)(F)F)c4)ccc3C)c2n1 = 2
• CN(C)CCNc1ncc2ncnc(Nc3cc(C(=O)Nc4cc(C(C)(C)C)on4)ccc3C(F)(F)F)c2n1 = 4170
• Cc1ccc(C(=O)Nc2ccc3c(c2)OC(F)(F)C(F)(F)O3)cc1Nc1ncnc2cnc(N3CCN(CCN(C)C)CC3)nc12 = 1

I = Cc1cn(-c2cc(NC(=O)c3ccc(C)c(Nc4ncnc5c(N)nc(N6CCN(C)CC6)nc45)c3)cc(C(F)(F)F)c2)cn1
II = COc1ccc(C(C)(C)C)cc1NC(=O)c1ccc(C)c(Nc2ncnc3cnc(N4CCN(CC5CCN(C)CC5)CC4)nc23)c1
III = COc1ccc(C(F)(F)F)cc1NC(=O)c1ccc(C)c(Nc2ncnc3cnc(NC4CCOC4)nc23)c1 (stereo not drawn)
IV = COCCN1CCN(c2ncc3ncnc(Nc4cc(C(=O)Nc5cc(N6CCN(C)CC6)c(F)c(C(F)(F)F)c5)ccc4C)c3n2)CC1
# input Order by IC50, ascending. Please reply with the labels ordered as requested. Many thanks.
# output III, II, IV, I
(III: 1 nM, II: 3 nM, IV: 25 nM, I: 54 nM)

I = Cc1ccc(NC(=O)c2cccc(C(F)(F)F)c2)cc1Nc1ncnc2c(N)nc(N3CC(C)NC(C)C3)nc12 (stereo not drawn)
II = Cc1ccc(NC(=O)c2cccc(C(C)(C)C#N)c2)cc1Nc1ncnc2cnc(NC3CCOC3)nc12 (stereo not drawn) [IV-32]
# input Could you kindly indicate whether I or II has the higher IC50 value? Answer with the label corresponding to your selection.
# output I
(I: 40 nM, II: 1 nM)

###

- assay-system: B-Raf (V600E)-kinase (Homo sapiens (Human), UniProt P15056, V600E)
- procedure-text: Kinase test B-RAF (V600E)
- Format: biochemical
- measurement-setup: B-RAF (V600E) kinase test, 250 μM ATP
measured-endpoint: IC50 (nM)

P = COc1ncc2ncnc(Nc3cc(C(=O)Nc4cc(C(C)(C)C)n[nH]4)ccc3C)c2n1
Q = Cc1ccc(C(=O)Nc2cc(N3CCCN(C)CC3)cc(C(F)(F)F)c2)cc1Nc1ncnc2cnc(N(C)CCF)nc12
R = COc1ccc(C(=O)Nc2cccc(C(F)(F)F)c2)cc1Nc1ncnc2c(N)nc(N3CCN(CC4CCN(C)CC4)CC3)nc12
S = COc1ccc(NC(=O)c2ccc(C)c(N(C)c3ncnc4cnc(N5CC[C@H](F)C5)nc34)c2)cc1C(F)(F)F
# input Order the 4 listed items from lowest to highest according to IC50. Please reply with the labels ordered as requested. Many thanks.
# output Q, P, R, S

Source: patent US8653087B2
